- target-system: GLP-1 receptor (UniProt P43220 24-463, limits assumed)
- procedure-details: cell-based or functional assay
Numbered stars: 1 amine (or outer) side, 2 acyl side, 3 side chain; on linkers, the order of the positions; unused ones are H or OH. Square brackets hold non-standard residues; d marks the D form. Side chains are listed from the residue outwards. Ends that are not written are not given here. * marks the point of attachment. γGlu = O=C(O)[C@H](CCC(=O)[*:2])N[*:1]; Palmitoyl = CCCCCCCCCCCCCCCC(=O)*; Aib = CC(C)(N)C(=O)O; βAla = NCCC(=O)O
Measured cAMP EC50 by item
quantity-kind: cAMP EC50

[
  {
    "binder": "H[Aib]QGTFTSDK([γGlu-γGlu-Palmitoyl])SKYLD[Aib]RRAQDFVQWLMNT-NH2 [Peptide 83 (Table 22, SEQ ID NO: 565)]",
    "value-observed": "0.043 nM"
  },
  {
    "binder": "H[Aib]QGTFTSDK([Ala-Ala-Palmitoyl])SKYLD[Aib]RRAQDFVQWLMNT-NH2 [Peptide 82 (Table 22, SEQ ID NO: 564)]",
    "value-observed": "0.108 nM"
  },
  {
    "binder": "H[Aib]QGTFTSDK([βAla-βAla-Palmitoyl])SKYLD[Aib]RRAQDFVQWLMNT-NH2 [Peptide 84 (Table 22, SEQ ID NO: 566)]",
    "value-observed": "0.004 nM"
  },
  {
    "binder": "H[Aib]QGTFTSDK([Leu-Leu-Palmitoyl])SKYLD[Aib]RRAQDFVQWLMNT-NH2 [Peptide 86 (Table 22, SEQ ID NO: 568)]",
    "value-observed": "0.006 nM"
  }
]
